- System: HeLa
- experiment_summary: Cytotoxicity against human HeLa cells assessed as reduction in cell viability after 24 hrs by MTT assay
- Type: functional, cell-based
quantity: pIC50
Reminder that pIC50 means the negative base-10 logarithm of the concentration expressed in mol/L.

**Q:** Tell me its pIC50 on HeLa: Cc1sc2cc1C1=C(CCC1)c1cc(sc1C)C(=O)[C@H]1CCCN1C(=O)[C@H](C(C)C)NC(=O)[C@H](CCCCN)NC(=O)[C@H](C(C)C)NC(=O)[C@H](CC(C)C)NC(=O)[C@@H](CCCCN)NC(=O)[C@@H]1CCCN1C(=O)[C@@H](Cc1ccccc1)NC(=O)[C@H](C(C)C)NC(=O)[C@H](CCCCN)NC(=O)[C@H](CC(C)C)NC(=O)[C@H](CCCCN)NC(=O)[C@H](C(C)C)NC2=O
**A:** 5.52

**Q:** Tell me its pIC50 on HeLa: Cc1sc2cc1C1=C(CCC1)c1cc(sc1C)C(=O)[C@H]1CCCN1C(=O)[C@H](Cc1ccc(O)cc1)NC(=O)[C@H](CCCN)NC(=O)[C@H](C(C)C)NC(=O)[C@@H]1CCCN1C(=O)[C@@H](Cc1ccccc1)NC(=O)[C@H](Cc1ccc(O)cc1)NC(=O)[C@H](CCCN)NC(=O)[C@H](C(C)C)NC2=O
**A:** 4.64

----------
- Test system: Bacillus subtilis
- experiment_summary: Antimicrobial activity against Bacillus subtilis DSM 347 after 22 hrs by resazurin dye based spectrophotometry
- Assay type: functional
- measurement_conditions: DSM 347, 22 h
Simple rule here: MIC less than 6 µM is 1, otherwise 0.

**Q:** MIC strictly < 6 µM for this compound? Cc1sc2cc1C1=C(CCC1)c1cc(sc1C)C(=O)[C@H]1CCCN1C(=O)[C@H](C(C)C)NC(=O)[C@H](CCCCN)NC(=O)[C@H](CC(C)C)NC(=O)[C@H](CCCCN)NC(=O)[C@@H]1CCCN1C(=O)[C@@H](Cc1ccccc1)NC(=O)[C@H](CCCCN)NC(=O)[C@H](C(C)C)NC(=O)[C@H](CCCCN)NC(=O)[C@H](CC(C)C)NC2=O
**A:** 1

**Q:** MIC strictly < 6 µM for this compound? Cc1sc2cc1C1=C(CCC1)c1cc(sc1C)C(=O)[C@H]1CCCN1C(=O)[C@H](CC(C)C)NC(=O)[C@H](CCCCN)NC(=O)[C@H](C(C)C)NC(=O)[C@H](CCCCN)NC(=O)[C@H](CC(C)C)NC(=O)[C@@H]1CCCN1C(=O)[C@@H](Cc1ccccc1)NC(=O)[C@H](C(C)C)NC(=O)[C@H](CCCCN)NC(=O)[C@H](CC(C)C)NC(=O)[C@H](CCCCN)NC(=O)[C@H](C(C)C)NC2=O
**A:** 0

**Q:** MIC strictly < 6 µM for this compound? Cc1sc2cc1C1=C(CCC1)c1cc(sc1C)C(=O)[C@H]1CCCN1C(=O)[C@H](C(C)C)NC(=O)[C@H](CCCN)NC(=O)[C@H](C(C)C)NC(=O)[C@@H]1CCCN1C(=O)[C@@H](Cc1ccccc1)NC(=O)[C@H](C(C)C)NC(=O)[C@H](CCCN)NC(=O)[C@H](CCNC(=O)C(C)C)NC2=O
**A:** 1

**Q:** MIC strictly < 6 µM for this compound? CCCCN1C(=O)[C@@H](Cc2ccccc2)NC(=O)[C@H](CC(C)C)NC(=O)[C@H](CCCN)NC(=O)[C@H]([C@@H](C)CC)NC(=O)c2cc(c(C)s2)C2=C(CCC2)c2cc(sc2C)C(=O)[C@H]2CCCN2C(=O)[C@H](CC(C)C)NC(=O)[C@H](CCCN)NC(=O)[C@H]([C@@H](C)CC)NC(=O)[C@@H]1CC(C)C
**A:** 0

Reference source for all entries: ChEMBL document CHEMBL4257585
